# assayed target: Nuclear factor erythroid 2-related factor 2 (Mus musculus)
# experimental protocol: Activation of Nrf2 in mouse Hepa1c1c7 cells assessed as increase in NQO1 activity at 20 uM
# Type: cell-based
# measurement context: filed as activator
measure: Activity
Give the value as a plain number.

Study these solved cases before continuing.
{"cpd smiles": "NS(=O)(=O)c1ccc(-n2c(SCC(=O)Nc3ccc(I)cc3)nc3c(I)cc(I)cc3c2=O)cc1", "Activity": 1.07}
{"cpd smiles": "NS(=O)(=O)c1ccc(-n2c(SCC(=O)Nc3ccc(Cl)cc3)nc3c(I)cc(I)cc3c2=O)cc1", "Activity": 1.26}
{"cpd smiles": "NS(=O)(=O)c1ccc(-n2c(SCC(=O)Nc3ccc(Br)cc3)nc3c(I)cc(I)cc3c2=O)cc1", "Activity": 1.42}

Any idea what Activity was measured for `NS(=O)(=O)c1ccc(-n2c(SCC(=O)Nc3cc(Cl)c(Cl)cc3Cl)nc3c(I)cc(I)cc3c2=O)cc1` ?
1.25

---

The entries below come with measured Activity values attached.
# assayed target: Nuclear factor erythroid 2-related factor 2 (Mus musculus) (UniProt Q60795)
# experimental protocol: Activation of Nrf2 in mouse Hepa1c1c7 cells assessed as increase in NQO1 activity at 12.5 uM
# Format: cell-based
# measurement context: filed as activator
Give the value as a plain number.

Any idea what Activity was measured for `NS(=O)(=O)c1ccc(-n2c(SCC(=O)Nc3ccc(Cl)cn3)nc3c(I)cc(I)cc3c2=O)cc1` ?
1.7

Any idea what Activity was measured for `NS(=O)(=O)c1ccc(-n2c(SCC(=O)Nc3ccncc3)nc3c(I)cc(I)cc3c2=O)cc1` ?
1.31

Any idea what Activity was measured for `NS(=O)(=O)c1ccc(-n2c(SCC(=O)Nc3ccc(F)cc3)nc3c(I)cc(I)cc3c2=O)cc1` ?
1.06

Any idea what Activity was measured for `NS(=O)(=O)c1ccc(-n2c(SCC(=O)Nc3cccnc3Cl)nc3c(I)cc(I)cc3c2=O)cc1` ?
1.38

---

# assayed target: Nuclear factor erythroid 2-related factor 2 (Mus musculus) (UniProt Q60795)
# experimental protocol: Activation of Nrf2 in mouse Hepa1c1c7 cells assessed as increase in NQO1 activity at 30 uM
# Assay type: cell-based
# measurement context: filed as activator
measure: Activity
Give the value as a plain number.

{"cpd smiles": "NS(=O)(=O)c1ccc(-n2c(SCC(=O)Nc3cccnc3)nc3c(I)cc(I)cc3c2=O)cc1", "measure": "Activity", "test result": 1.35}

Any idea what Activity was measured for `NS(=O)(=O)c1ccc(-n2c(SCC(=O)Nc3cccc(F)c3)nc3c(I)cc(I)cc3c2=O)cc1` ?
1.47

Any idea what Activity was measured for `NS(=O)(=O)c1ccc(-n2c(SCC(=O)Nc3ccc(Br)cc3Br)nc3c(I)cc(I)cc3c2=O)cc1` ?
1.17

Any idea what Activity was measured for `NS(=O)(=O)c1ccc(-n2c(SCC(=O)Nc3c(Cl)cc(Cl)cc3Cl)nc3c(I)cc(I)cc3c2=O)cc1` ?
1.02

---

# assayed target: Nuclear factor erythroid 2-related factor 2 (Mus musculus) (UniProt Q60795)
# Sequence (whole entry): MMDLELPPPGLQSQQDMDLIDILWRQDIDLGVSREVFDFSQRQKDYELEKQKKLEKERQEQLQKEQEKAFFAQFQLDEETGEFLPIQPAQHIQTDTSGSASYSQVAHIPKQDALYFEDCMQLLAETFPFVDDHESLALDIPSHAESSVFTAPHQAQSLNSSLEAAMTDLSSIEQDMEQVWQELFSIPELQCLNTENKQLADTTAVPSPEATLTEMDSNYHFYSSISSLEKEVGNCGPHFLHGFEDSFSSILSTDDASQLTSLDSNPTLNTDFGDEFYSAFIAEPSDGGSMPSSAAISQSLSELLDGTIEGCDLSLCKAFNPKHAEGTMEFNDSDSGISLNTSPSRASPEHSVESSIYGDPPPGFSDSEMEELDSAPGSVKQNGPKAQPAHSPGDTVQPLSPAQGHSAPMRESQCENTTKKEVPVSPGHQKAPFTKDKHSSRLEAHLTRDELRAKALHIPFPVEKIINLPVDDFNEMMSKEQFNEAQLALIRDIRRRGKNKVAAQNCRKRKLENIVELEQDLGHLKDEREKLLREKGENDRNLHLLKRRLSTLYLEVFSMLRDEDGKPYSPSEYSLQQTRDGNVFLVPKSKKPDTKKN
# experimental protocol: Activation of Nrf2 in mouse Hepa1c1c7 cells assessed as increase in NQO1 activity at 5 uM
# Format: cell-based
# measurement context: filed as activator
Decision: Activity compared against 1; not below it gives class 1, below it gives class 0.

Reference set (3 entries):
{"cpd smiles": "NS(=O)(=O)c1ccc(-n2c(SCC(=O)Nc3ccc(I)cc3)nc3c(I)cc(I)cc3c2=O)cc1", "qualitative label": "class 1"}
{"cpd smiles": "NS(=O)(=O)c1ccc(-n2c(SCC(=O)Nc3ccccn3)nc3c(I)cc(I)cc3c2=O)cc1", "qualitative label": "class 0"}
{"cpd smiles": "NS(=O)(=O)c1ccc(-n2c(SCC(=O)Nc3ccc(Cl)cc3)nc3c(I)cc(I)cc3c2=O)cc1", "qualitative label": "class 1"}

Here is the next item to consider.
Answer whether Activity of `NS(=O)(=O)c1ccc(-n2c(SCC(=O)Nc3cc(Cl)c(Cl)cc3Cl)nc3c(I)cc(I)cc3c2=O)cc1` is greater than or equal to 1.
class 1

---

# assayed target: Nuclear factor erythroid 2-related factor 2 (Mus musculus) (UniProt Q60795)
# Sequence (whole entry): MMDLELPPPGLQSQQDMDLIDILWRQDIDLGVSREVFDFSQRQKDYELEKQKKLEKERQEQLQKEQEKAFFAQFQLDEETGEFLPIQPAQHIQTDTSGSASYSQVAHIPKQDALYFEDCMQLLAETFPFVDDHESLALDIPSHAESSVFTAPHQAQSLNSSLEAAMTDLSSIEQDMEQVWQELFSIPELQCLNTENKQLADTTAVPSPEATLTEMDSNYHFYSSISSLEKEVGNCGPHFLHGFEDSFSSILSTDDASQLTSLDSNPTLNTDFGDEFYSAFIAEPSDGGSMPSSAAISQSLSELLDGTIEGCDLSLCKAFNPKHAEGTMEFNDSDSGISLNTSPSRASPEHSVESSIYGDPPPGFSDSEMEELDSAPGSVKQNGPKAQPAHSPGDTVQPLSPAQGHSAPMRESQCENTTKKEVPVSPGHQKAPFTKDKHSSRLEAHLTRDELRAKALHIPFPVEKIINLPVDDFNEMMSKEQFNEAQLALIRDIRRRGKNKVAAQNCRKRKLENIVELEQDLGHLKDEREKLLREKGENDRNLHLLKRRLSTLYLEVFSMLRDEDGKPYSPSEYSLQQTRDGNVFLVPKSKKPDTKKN
# experimental protocol: Activation of Nrf2 in mouse Hepa1c1c7 cells assessed as increase in NQO1 activity at 0.4 uM
# Format: cell-based
# measurement context: filed as activator
measure: Activity
Give the value as a plain number.

Any idea what Activity was measured for `NS(=O)(=O)c1ccc(-n2c(SCC(=O)Nc3ccncc3)nc3c(I)cc(I)cc3c2=O)cc1` ?
1.04

Any idea what Activity was measured for `NS(=O)(=O)c1ccc(-n2c(SCC(=O)Nc3ccc(Cl)cn3)nc3c(I)cc(I)cc3c2=O)cc1` ?
0.94

Any idea what Activity was measured for `NS(=O)(=O)c1ccc(-n2c(SCC(=O)Nc3cccnc3Cl)nc3c(I)cc(I)cc3c2=O)cc1` ?
0.99

Any idea what Activity was measured for `NS(=O)(=O)c1ccc(-n2c(SCC(=O)Nc3ccc(F)cc3)nc3c(I)cc(I)cc3c2=O)cc1` ?
0.98

---

The entries below come with measured Activity values attached.
# assayed target: UniProtKB Q60795
# Sequence (whole entry): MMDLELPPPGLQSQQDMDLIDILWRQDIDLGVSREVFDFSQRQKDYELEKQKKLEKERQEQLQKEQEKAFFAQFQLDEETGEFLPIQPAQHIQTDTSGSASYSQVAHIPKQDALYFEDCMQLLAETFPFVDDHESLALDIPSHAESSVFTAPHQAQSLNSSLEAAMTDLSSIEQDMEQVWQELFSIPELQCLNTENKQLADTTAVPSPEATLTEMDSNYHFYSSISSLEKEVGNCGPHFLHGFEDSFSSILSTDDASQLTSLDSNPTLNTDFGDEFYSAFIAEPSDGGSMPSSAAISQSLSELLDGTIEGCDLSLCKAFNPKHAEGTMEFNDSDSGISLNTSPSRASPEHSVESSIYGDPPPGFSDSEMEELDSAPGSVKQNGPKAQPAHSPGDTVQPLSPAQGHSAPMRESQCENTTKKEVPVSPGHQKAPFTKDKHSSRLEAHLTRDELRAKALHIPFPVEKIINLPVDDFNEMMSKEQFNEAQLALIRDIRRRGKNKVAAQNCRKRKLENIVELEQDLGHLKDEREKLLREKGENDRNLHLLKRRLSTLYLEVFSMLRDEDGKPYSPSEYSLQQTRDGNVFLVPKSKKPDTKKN
# experimental protocol: Activation of Nrf2 in mouse Hepa1c1c7 cells assessed as increase in NQO1 activity at 0.625 uM
# Type: cell-based
# measurement context: filed as activator

{"cpd smiles": "NS(=O)(=O)c1ccc(-n2c(SCC(=O)Nc3ccc(Br)cc3)nc3c(I)cc(I)cc3c2=O)cc1", "Activity": 1.01}
{"cpd smiles": "NS(=O)(=O)c1ccc(-n2c(SCC(=O)Nc3ccc(Cl)cc3)nc3c(I)cc(I)cc3c2=O)cc1", "Activity": 1.04}
{"cpd smiles": "NS(=O)(=O)c1ccc(-n2c(SCC(=O)Nc3ccccn3)nc3c(I)cc(I)cc3c2=O)cc1", "Activity": 0.94}
{"cpd smiles": "NS(=O)(=O)c1ccc(-n2c(SCC(=O)Nc3cc(Cl)c(Cl)cc3Cl)nc3c(I)cc(I)cc3c2=O)cc1", "Activity": 1.03}

Turning now to a further record.
Any idea what Activity was measured for `NS(=O)(=O)c1ccc(-n2c(SCC(=O)Nc3ccc(I)cc3)nc3c(I)cc(I)cc3c2=O)cc1` ?
1.02

Each recorded value in this set is attributed to ChEMBL document CHEMBL4819062.
